molecular target: Beta-ketoacyl-ACP-synthase III (Plasmodium falciparum); experiment: Percent inhibition of Plasmodium falciparum beta-Ketoacyl-acyl carrier protein synthase III activity (MBP-pfKASIII) expressed in E. coli cells using [1-14C]acetyl-CoA as radioligand upon incubation at 37 degrees C for 15 minutes with compound dissolved in 2% DMSO at 100 uM
Label yes for high-side inhibition (at or above 20%) and no for low-side inhibition (below it).

{"columns": ["compound", "assigned-label"],
 "data": [
  ["C=CCOC1=C(C)C(=O)SC1(C)CCCCCCCCCC (stereo not given)", "no"],
  ["CCCCCCCCCCC1(C)SC(O)=C(Cc2ccccc2)C1=O (stereo not given)", "yes"],
  ["CCCCCCCCCCC1(C)SC(O)=C(CC)C1=O (stereo not given)", "yes"],
  ["CCCCCCCCCCC1(CC)SC(O)=C(C)C1=O (stereo not given)", "no"]
]}

Problem: # bool: inhibition of CCCCCCCCC1(C)SC(O)=C(C)C1=O (stereo not given) >= 20%
Solution: no

* * *

target: Beta-ketoacyl-ACP-synthase III (Plasmodium falciparum) (UniProt O77078); assay: Percent inhibition of recombinant Plasmodium falciparum beta-Ketoacyl-acyl carrier protein synthase III activity (MBP-pfKASIII) expressed in E. coli cells using [1-14C]acetyl-CoA as radioligand upon incubation at 37 degrees C for 15 minutes with compound dissolved in 2% DMSO at 10 uM; NA = no activity
measured-parameter: inhibition

Example cases with answers are listed next.
{"columns": ["compound", "inhibition"],
 "data": [
  ["CCCC1=C(O)C(C)(CCCCCCO[Si](C)(C)C(C)(C)C)SC1=O (stereo not drawn)", "No activity"],
  ["CCCCCCCCCCC1(C)SC(=O)C(CCC)=C1OCc1ccccc1 (stereo not drawn)", "No activity"],
  ["C=CCC1(C)C(=O)SC(C)C1=O (stereo not drawn)", "No activity"],
  ["CCCCCCC1(C)OC(O)=C(C)C1=O (stereo not drawn)", "No activity"],
  ["C=CCC1(CCC)C(=O)SC(C)(CCCCCCCCCC)C1=O (stereo not drawn)", "No activity"]
]}

Go through the items and report each one's inhibition.
1. CC1SC(O)=C(Cc2ccccc2)C1=O (stereo not drawn)
2. CCCCCCCCCCC1(C)SC(=O)C(C/C=C(/C)CCC=C(C)C)(CCC)C1=O (stereo not drawn)
3. CCCCCCCCC1(C)SC(O)=C(CC)C1=O (stereo not drawn)
4. C=CCOC1=C(CCC)C(=O)SC1(C)CCCCCCCCCC (stereo not drawn)

Solution:
No activity
No activity
No activity
No activity

Dear reader, for each entry below, please note its inhibition.
1. CCCC1=C(O)C(C)(CCCCCCO)SC1=O (stereo not drawn)
2. CCC1=C(O)SC(C)C1=O (stereo not drawn)
3. CC1=C(O)SC(C)C1=O (stereo not drawn)

Solution:
1: No activity; 2: No activity; 3: No activity

Problem: Consider the compound shown here: CCCCCCCCCCC1(C)NC(=O)C(C(C)=O)=C1O (stereo not drawn) What is its recorded inhibition?
Solution: No activity

* * *

Target: Beta-ketoacyl-ACP-synthase III (Plasmodium falciparum)
Sequence (whole entry): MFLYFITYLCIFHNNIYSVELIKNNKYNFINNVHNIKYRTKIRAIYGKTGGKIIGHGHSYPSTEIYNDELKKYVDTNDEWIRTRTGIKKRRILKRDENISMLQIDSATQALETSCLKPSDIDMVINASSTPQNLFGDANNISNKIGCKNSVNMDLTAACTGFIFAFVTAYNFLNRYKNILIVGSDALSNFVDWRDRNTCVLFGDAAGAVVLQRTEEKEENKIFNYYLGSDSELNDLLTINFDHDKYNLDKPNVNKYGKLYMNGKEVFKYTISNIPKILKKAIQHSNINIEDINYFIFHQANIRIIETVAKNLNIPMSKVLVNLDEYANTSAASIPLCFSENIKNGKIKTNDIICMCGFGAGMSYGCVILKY
Assay: Percent inhibition of Plasmodium falciparum beta-Ketoacyl-acyl carrier protein synthase III activity (MBP-pfKASIII) expressed in E. coli cells using [1-14C]acetyl-CoA as radioligand upon incubation at 37 degrees C for 15 minutes with compound dissolved in 2% DMSO at 100 uM
measured-parameter: inhibition (%)
One number for each entry, in %.

{"columns": ["compound", "tested-target", "inhibition, %"],
 "data": [
  ["CCCCCCCCCCCCCCCCC1(CC)SC(O)=C(C)C1=O (stereo unspecified)", "Beta-ketoacyl-ACP-synthase III (Plasmodium falciparum)", 40]
]}

# map each compound to its inhibition
1. CCCC1(C/C=C(/C)CCC=C(C)C)C(=O)SC(C)C1=O (stereo unspecified)
2. CCCCCCCCCCC1(C)SC(O)=C(CCCC)C1=O (stereo unspecified)
3. CCCCCCCCCCC1(C)SC(O)=C(C)C1=O (stereo unspecified)
4. CCCCCCCCCCCCCCCCC1(C)SC(O)=C(C)C1=O (stereo unspecified)
5. CCCCCCCCCCC1(C)SC(=O)C(CCC)=C1OCCCCCCO[Si](C)(C)C(C)(C)C (stereo unspecified)

Solution:
1: 90; 2: 60; 3: 30; 4: 55; 5: 10

* * *

system: Plasmodium falciparum; assay: In vitro inhibitory concentration against chloroquine-resistant, pyrimethamine-resistant Plasmodium falciparum K1; type: functional, organism-based; details: Plasmodium falciparum
In plain terms, low IC50, meaning strictly below 40 µM, gives True, and everything else gives False.

{"columns": ["compound", "assigned-label"],
 "data": [
  ["CCCCCCCCCCC1SC(O)=C(C)C1=O (centres undefined)", "False"],
  ["CCCC1=C(O)C(C)(CCCCCCO[Si](C)(C)C(C)(C)C)SC1=O (centres undefined)", "True"],
  ["CCCCCCCCCCCCCCCCC1(C)SC(O)=C(C)C1=O (centres undefined)", "True"],
  ["CCCC1=C(O)SC(C)C1=O (centres undefined)", "False"],
  ["CCCCCCCCCCC1(CC)SC(O)=C(C)C1=O (centres undefined)", "False"]
]}

Problem: Find out if reported IC50 for CCCCCCCCCCC1(C)SC(O)=C(C)C1=O (centres undefined) is less than 40 µM
Solution: True

Problem: Also, CCCCCCCCCCCCCCCCC1(C)SC(O)=C(CCC)C1=O (centres undefined) please.
Solution: True

Problem: Lookup CCC1SC(O)=C(C)C1=O (centres undefined)
Solution: False

Problem: Same lookup for CCC1=C(O)SC(C)C1=O (centres undefined) , please.
Solution: False

Problem: CCCCCCCCCCC1(C)SC(=O)C(C/C=C(/C)CCC=C(C)C)(CCC)C1=O (centres undefined) ?
Solution: False

Problem: For CC1SC(O)=C(Cc2ccccc2)C1=O (centres undefined) then?
Solution: False

Problem: Moving on to CCCCCCCCCCCCCCCCC1(C)SC(O)=C(Cc2ccccc2)C1=O (centres undefined)
Solution: True

Problem: Another compound: CCCCCCOCCOCCC1(C)SC(O)=C(CC)C1=O (centres undefined)
Solution: False

Problem: CCCC1=C(O)C(C)(CCCCCCO)SC1=O (centres undefined) ?
Solution: False

* * *

For each of the molecules below, state its IC50.
system: Plasmodium falciparum; experiment: In vitro inhibitory concentration against chloroquine-resistant, pyrimethamine-resistant Plasmodium falciparum K1; format: functional, organism-based; conditions: Plasmodium falciparum

{"columns": ["molecule", "tested-target", "IC50"],
 "data": [
  ["CCCCCCC1(C)SC(O)=C(CC)C1=O (configuration not stated)", "Plasmodium falciparum", "61 µM"],
  ["CCCCCCCCCCC1(C)SC(O)=C(Cc2ccccc2)C1=O (configuration not stated)", "Plasmodium falciparum", "50 µM"],
  ["CCCCCCCCC1(C)SC(O)=C(C)C1=O (configuration not stated)", "Plasmodium falciparum", "153 µM"]
]}

I have 3 molecules here; please give me IC50 for each one.
1. CCCCCCCCCCC1(C)SC(O)=C(CCCC)C1=O (configuration not stated)
2. CCCCCCC1(C)SC(O)=C(C)C1=O (configuration not stated)
3. CCCCCCCCC1(C)SC(O)=C(CC)C1=O (configuration not stated)

Solution:
1: 71 µM; 2: 139 µM; 3: 54 µM

Quick batch: IC50 for everything below.
1. CCCCCCCCCCC1(C)OC(O)=C(CC)C1=O (configuration not stated)
2. CCCCCCCCCCC1(C)SC(O)=C(CCC)C1=O (configuration not stated)
3. CCCCCCCCCCC1(C)SC(=O)C(CCC)=C1OCCCCCCO (configuration not stated)

Solution:
94 µM
10 µM
31 µM

Batch request: IC50 for each of the following molecules.
1. C=CCC1(CCC)C(=O)SC(C)(CCCCCCCCCC)C1=O (configuration not stated)
2. CCCCCCCCCCC1(C)OC(O)=C(CCCC)C1=O (configuration not stated)
3. CCCC1(C/C=C(/C)CCC=C(C)C)C(=O)SC(C)C1=O (configuration not stated)
4. C=CCC1(C)C(=O)SC(C)C1=O (configuration not stated)
5. CCCCCCCCCCCCCCCCC1(C)SC(O)=C(CC)C1=O (configuration not stated)
6. CCCCCCCCCCC1(C)SC(=O)C(CCC)=C1OCc1ccccc1 (configuration not stated)
7. C=CCOC1=C(CCC)C(=O)SC1(C)CCCCCCCCCC (configuration not stated)

Solution:
1. 19 µM
2. > 15 µM
3. 9 µM
4. 62 µM
5. 19 µM
6. 4 µM
7. 1 µM
